Recorded growth by entry
Test system: IGROV1 ovarian
Test: NCI-60 one-dose screen, 48 h (100 = growth as untreated, 0 = no growth, -100 = all killed)
Settings: 10 µM unless noted
Compounds without any hit were thinned out: in the full panel of roughly 83,000, 20% have a hit. Active and inactive are the calls of the source. Rule for the calls: active = growth percent below 10; inactive = the rest.

- compound: "COC(=O)CCCNC(=O)C(=O)c1c(O)c(O)c(C(C)C)c2cc(C)c(-c3c(C)cc4c(C(C)C)c(O)c(O)c(C(=O)C(=O)NCCCC(=O)OC)c4c3O)c(O)c12"
  target.system: "IGROV1 ovarian"
  growth: "18.2% (inactive)"
- compound: "CN1C(=O)CCC(N2C(=O)c3cccc(NCCOCCOCCNC(=O)c4cc5c(o4)C(=O)c4ccccc4C5=O)c3C2=O)C1=O (stereo not given)"
  target.system: "IGROV1 ovarian"
  growth: "-20.1% (active)"
- compound: "CNC1(C#N)CCN(Cc2ccccc2)CC1"
  target.system: "IGROV1 ovarian"
  growth: "101% (inactive)"
- compound: "CC(C)CCC[C@@H](C)[C@H]1CCC2C3=CCn4c(=O)ccc(=O)n4C3CC[C@@]21C (stereo not given in full)"
  target.system: "IGROV1 ovarian"
  growth: "-82.4% (active)"
- compound: "Cc1nn(Cc2ccccc2)cc1C(=O)Nc1sc2c(c1C(N)=O)CCC(=O)C2"
  target.system: "IGROV1 ovarian"
  growth: "33.5% (inactive)"
- compound: "CCn1nc(C#Cc2c(C)ccc3c(Nc4ccc(Cl)cc4)nccc23)c2c(N)ncnc21"
  target.system: "IGROV1 ovarian"
  growth: "12.5% (inactive)"
- compound: "CC(=O)Nc1nccs1"
  target.system: "IGROV1 ovarian"
  growth: "94.7% (inactive)"
- compound: "CCOC(=O)C1=C(C)NC(SCc2nnc(-c3ccc(Cl)cc3)o2)=NC1c1ccc(Cl)cc1Cl (stereo not given)"
  target.system: "IGROV1 ovarian"
  growth: "43.9% (inactive)"
- compound: "Cc1c(C(=O)O[C@H]2[C@@H]3[C@H](C)CC[C@H]3[C@]3(C)O[C@@]2(C2CCCCC2)C[C@H]3OC(=O)CO)ccc2ccccc12"
  target.system: "IGROV1 ovarian"
  growth: "63.3% (inactive)"
- compound: "O=S(=O)(NCCNc1cc(-c2c(-c3cccc(O)c3)nc3sccn23)ccn1)c1ccc(Br)cc1"
  target.system: "IGROV1 ovarian"
  growth: "47.4% (inactive)"
- compound: "CN(C)CCn1cc(-c2ccc3c(Nc4ccc(CC(=O)Nc5cccc(F)c5)cc4)ncnc3c2)cn1"
  target.system: "IGROV1 ovarian"
  growth: "-65.3% [30 µM] (active)"
- compound: "c1ccc2c(c1)nc(-n1ccnc1)c1nc3ccccc3n12"
  target.system: "IGROV1 ovarian"
  growth: "52.5% (inactive)"
- compound: "N=c1ccn2c(n1)OC1C(O)C(CO)OC12 (stereo not given)"
  target.system: "IGROV1 ovarian"
  growth: "12.6% (inactive)"
- compound: "Cn1ccc(Cc2cnc(N)s2)n1"
  target.system: "IGROV1 ovarian"
  growth: "111% (inactive)"
- compound: "COc1cccc(CCC2CCCN(c3cc(C)nc(N)n3)C2)c1 (stereo not given)"
  target.system: "IGROV1 ovarian"
  growth: "31.3% (inactive)"
- compound: "CC1(C)N=C(N)N=C(N)N1c1ccc(Cl)c(Cl)c1"
  target.system: "IGROV1 ovarian"
  growth: "41.2% (inactive)"
- compound: "C/C(Cc1ccc(Cl)cc1)=C(/c1ccc(Cl)cc1)c1ccc(OCCN(C)C)cc1"
  target.system: "IGROV1 ovarian"
  growth: "56.4% (inactive)"
- compound: "Nc1c(C(=O)Nc2ccccc2)sc2nc3c(cc12)CCCCCC3"
  target.system: "IGROV1 ovarian"
  growth: "15.3% (inactive)"
- compound: "COc1cc(/C=C/C(=O)c2ccc(Nc3nc(Nc4ccccc4)nc(Nc4ccc(Cl)cc4)n3)cc2)cc(OC)c1OC"
  target.system: "IGROV1 ovarian"
  growth: "54.8% (inactive)"
- compound: "Cc1ccc2c(n1)C(=O)C(Oc1ccc(F)cc1)=CC2=O"
  target.system: "IGROV1 ovarian"
  growth: "109% (inactive)"

----------
Test system: UACC-62 melanoma
Test: NCI-60 one-dose screen, 48 h (100 = growth as untreated, 0 = no growth, -100 = all killed)
Details: 10 µM unless noted
The panel holds about 83,000 compounds, 20% with a hit somewhere; the sample as a whole holds those more often.

- compound: "N#C/C(=C\\c1ccc2c(c1)OCO2)n1nnc2ccccc21"
  target.system: "UACC-62 melanoma"
  growth (%): 20
- compound: "COc1ccccc1NC(=O)Nc1ccc(-c2nc3ccccc3o2)cc1"
  target.system: "UACC-62 melanoma"
  growth (%): 98.7
- compound: "Clc1ccc2[nH]c3c(NCCCN4CCOCC4)ncnc3c2c1"
  target.system: "UACC-62 melanoma"
  growth (%): 80.1
- compound: "N=C(N)c1ccc(-c2ccc(-c3ccc(Cl)c(Cl)c3)o2)nc1"
  target.system: "UACC-62 melanoma"
  growth (%): 103
- compound: "CC(C)(C)c1ccc(C(=O)Nc2sc3c(c2C(N)=O)CCC(=O)C3)cc1"
  target.system: "UACC-62 melanoma"
  growth (%): -36.7
- compound: "CC(=O)Nc1cccc(C2=CC(c3ccc(C)cc3)n3ncnc3N2)c1 (stereo unspecified)"
  target.system: "UACC-62 melanoma"
  growth (%): 85.6
- compound: "Cc1nn(-c2ccccc2)c2c1C(c1ccc([N+](=O)[O-])cc1)C(C#N)=C(N)O2 (stereo unspecified)"
  target.system: "UACC-62 melanoma"
  growth (%): 96.1
- compound: "CS(=O)(=O)c1ccc(-c2nc3cc(Cl)ccc3n2CC(=O)N/N=C/c2ccc(Cl)cc2)cc1"
  target.system: "UACC-62 melanoma"
  growth (%): 56.2
- compound: "CN(CCC(=O)/C(=C\\c1ccccc1)c1ccc(Cl)cc1)Cc1ccccc1"
  target.system: "UACC-62 melanoma"
  growth (%): -36.6
- compound: "Cc1nc(Nc2ccc(S(=O)(=O)Nc3cc(C)on3)cc2)c2ccccc2n1"
  target.system: "UACC-62 melanoma"
  growth (%): 98.2
- compound: "Cc1nc(Nc2ccc(NC(=S)Nc3ccccc3)cc2)nc2nc(Nc3cccc(Cl)c3)[nH]c(=O)c12"
  target.system: "UACC-62 melanoma"
  growth (%): 102
- compound: "C=CCOc1cccc(/C=C2\\SC(=Nc3ccc(O)cc3)NC2=O)c1"
  target.system: "UACC-62 melanoma"
  growth (%): 34.7
- compound: "Cc1csc(NC(=O)c2sc3nc(-c4cccs4)ccc3c2N)n1"
  target.system: "UACC-62 melanoma"
  growth (%): 98.2
- compound: "N#C/C=C(\\c1ccc([N+](=O)[O-])cc1)n1nnc2cc(Cl)c(Cl)cc21"
  target.system: "UACC-62 melanoma"
  growth (%): 3.91
- compound: "Cc1cc(Cl)nc(N(CCCNc2ccnc3cc(Cl)ccc23)Cc2ccccn2)n1"
  target.system: "UACC-62 melanoma"
  growth (%): 55.9
- compound: "N=C(N)c1ccc(-c2ccc(-c3ccc(Cl)cc3Cl)o2)cc1"
  target.system: "UACC-62 melanoma"
  growth (%): 72.1
- compound: "O=c1oc2ccc(Cl)cc2cc1-c1cs/c(=N/N=C\\c2ccc(Cl)cc2)n1/N=C/c1ccc(Cl)cc1"
  target.system: "UACC-62 melanoma"
  growth (%): 93.8
- compound: "Cc1[nH]c(-c2nc3ccccc3[nH]2)c(C)c1C(=O)N1CCc2sccc2C1"
  target.system: "UACC-62 melanoma"
  growth (%): 87.8
- compound: "NC(N)=N/N=C(/c1ccccc1)c1ccccc1F"
  target.system: "UACC-62 melanoma"
  growth (%): 20.2
- compound: "CCN(CC)S(=O)(=O)c1ccc(O)c(NC(=O)c2[nH]c(C)c(C(C)=O)c2CCc2ccc(Cl)cc2)c1"
  target.system: "UACC-62 melanoma"
  growth (%): 20.2
- compound: "O=S(=O)(Cc1ccccc1)c1nc2ccccc2s1"
  target.system: "UACC-62 melanoma"
  growth (%): 71.1

----------
Test system: RPMI-8226 leukemia
Test: NCI-60 one-dose screen, 48 h
Conditions: 10 µM unless noted
The panel holds about 83,000 compounds, 20% with a hit somewhere; the sample as a whole holds those more often. Calls of active or inactive are those of the source. The calls were made as follows: active = growth percent below 10; inactive = the rest.
Classes used: TRUE (active), FALSE (inactive)

- compound: "CC(C)(O)c1cccc(F)c1"
  answer.label: "FALSE"
- compound: "COc1ccc(-c2cc(-c3cc(OC)ccc3O)[nH]c(=O)c2C#N)cc1"
  answer.label: "FALSE"
- compound: "N#Cc1c(NC(=O)c2ccc(Br)cc2)sc2c1CCCC2"
  answer.label: "FALSE"
- compound: "COc1cc(/C=C/C(=O)c2cccc(-n3cc(-c4ccc(Cl)cc4)[nH]c3=O)c2)cc(OC)c1OC"
  answer.label: "TRUE"
- compound: "NS(=O)(=O)c1cnccc1-n1ccc(=O)c(S(N)(=O)=O)c1"
  answer.label: "FALSE"
- compound: "O=C(/C=C/C12c3ccccc3C(c3ccccc31)C1C(=O)N(c3ccccc3)C(=O)C12)c1ccc(Cl)cc1 (stereo not drawn)"
  answer.label: "TRUE"
- compound: "CCCCN1CCN(c2ccc3nc(-c4ccc5nc(-c6ccc(OCC)c(OCC)c6)[nH]c5c4)[nH]c3c2)CC1"
  answer.label: "TRUE"
- compound: "C#CC[C@H](N)C(=O)O"
  answer.label: "FALSE"
- compound: "C=C1c2c(C)nn(-c3ccc(S(N)(=O)=O)cc3)c2N(C)C23CC1C1(C)c4c(C)nn(-c5ccc(S(N)(=O)=O)cc5)c4N(C)C(C)(CC12)C3 (stereo not drawn)"
  answer.label: "TRUE"
- compound: "CN1CCN(C(=O)[C@]23CCC(C)(C)C[C@@H]2C2=CC[C@@H]4[C@@]5(C)Cc6c([nH]c7ccccc67)C(C)(C)[C@@H]5CC[C@@]4(C)[C@]2(C)CC3)CC1"
  answer.label: "FALSE"
- compound: "COC(=O)CNC(=O)C(=O)c1c(O)c(O)c(C(C)C)c2cc(C)c(-c3c(C)cc4c(C(C)C)c(O)c(O)c(C(=O)C(=O)NCC(=O)OC)c4c3O)c(O)c12"
  answer.label: "FALSE"
- compound: "CNC=O"
  answer.label: "FALSE"
- compound: "CN1C[C@@H](c2ccc(Cl)cc2)[C@]2(NC(=S)N(c3ccc(F)c(Cl)c3)C2=O)[C@@]12C(=O)NC1C=CC(Cl)=C[C@H]12 (stereo partly drawn)"
  answer.label: "TRUE"
- compound: "CCC(=O)OC1=C(C)SC2=NC(c3ccc(Cl)c(Cl)c3)=CC(c3cc(OC)c(OC)c(OC)c3)N21 (stereo not drawn)"
  answer.label: "FALSE"
- compound: "O=c1oc2ccc(Cl)cc2cc1-c1cs/c(=N/N=C\\c2ccc(Cl)cc2)n1/N=C/c1ccc(Cl)cc1"
  answer.label: "FALSE"
- compound: "CC(/C=N/NC(=O)c1cc(-c2ccco2)[nH]n1)=C\\c1ccccc1"
  answer.label: "FALSE"
- compound: "COc1cc(/C=C/C(=O)c2ccc(Nc3nc(Nc4ccccc4)nc(Nc4ccc(Cl)cc4)n3)cc2)cc(OC)c1OC"
  answer.label: "TRUE"
- compound: "O=C(NCc1cn(Cc2cccc(Oc3ccccc3)c2)nn1)c1cccnc1NCc1ccc(Cl)cc1"
  answer.label: "TRUE"
- compound: "O=C1NN(C(=O)c2ccc(O)cc2)C(c2ccccc2)=N/C1=C\\c1cn(-c2ccccc2)nc1-c1ccccc1"
  answer.label: "FALSE"
- compound: "Cc1ccc(S(=O)(=O)Nc2sccc2-c2nc(-c3ccccc3)no2)cc1"
  answer.label: "FALSE"
- compound: "C=CCO[C@H]1CO[C@H]2[C@@H]1OC[C@@H]2Oc1ccc(Nc2ccnc(Nc3ccc(O[C@H]4CO[C@H]5[C@@H]4OC[C@@H]5OCC=C)c(Cl)c3)n2)cc1Cl"
  answer.label: "TRUE"
- compound: "COC(=O)c1ccc(CSc2nnc(-c3ccncc3)o2)cc1"
  answer.label: "FALSE"
- compound: "N#Cc1c(N)n2c(nc1=Nc1ccc([N+](=O)[O-])cc1)sc1cc(Cl)ccc12"
  answer.label: "FALSE"
- compound: "Cc1c(C(=O)O)nnn1-c1nccs1"
  answer.label: "FALSE"
- compound: "CN(C)CCOC(=O)Nc1ccc(Cl)cc1"
  answer.label: "FALSE"
- compound: "Cc1nc(Nc2ccc(S(=O)(=O)Nc3cc(C)on3)cc2)c2ccccc2n1"
  answer.label: "FALSE"
- compound: "COc1cc(CNC(=O)/C=C/C=C/c2ccc3c(c2)OCO3)ccc1OCc1cn(-c2ccc(Cl)c(Cl)c2)nn1"
  answer.label: "FALSE"
- compound: "CN1CCN(c2ccc3nc(/N=C/c4ccc5sc(-c6ccc([N+](=O)[O-])cc6)nc5c4)sc3c2)CC1"
  answer.label: "FALSE"
- compound: "CCCCCCCCn1cc(C2=C(c3coc4ccc(OC)cc34)C(=O)NC2=O)c2ccccc21"
  answer.label: "FALSE"
- compound: "Cc1nc(Nc2cccc(NC(=O)Nc3ccc(Cl)cc3)c2)c2ccccc2n1"
  answer.label: "FALSE"
- compound: "CS(=O)(=O)c1ccc(-c2[nH]c3ccc(F)cc3c2/C=N/O)cc1"
  answer.label: "FALSE"
- compound: "c1ccc2c(c1)nc(-n1ccnc1)c1nc3ccccc3n12"
  answer.label: "FALSE"
- compound: "Nc1nc(N)c(-c2ccc(Cl)cc2)c(/C=C/c2ccc([N+](=O)[O-])cc2)n1"
  answer.label: "FALSE"
- compound: "CNC(=O)c1cc(Oc2ccc3nc(Nc4cc(Cl)cc(Cl)c4)ccc3c2)ccn1"
  answer.label: "FALSE"
- compound: "O=S(=O)(Cc1ccccc1)c1nc2ccccc2s1"
  answer.label: "FALSE"
- compound: "COc1cc(C2C=C(c3cccc(NC(C)=O)c3)Nc3ncnn32)cc(OC)c1OC (stereo not drawn)"
  answer.label: "FALSE"
- compound: "CCCCOC(=O)c1ccc(NC(=O)C(C)N2CCOCC2)cc1 (stereo not drawn)"
  answer.label: "FALSE"
- compound: "C=CC(=O)N[C@@H](Cc1ccc(-c2cc(Cl)cc(Cl)c2)cc1)[C@@H](O)[C@H](O)C(=O)O"
  answer.label: "FALSE"

Every entry's value here was drawn from PubChem BioAssay (NCI).
